Attribution: patent US10882852B1

Tested on: HeLa cervical cancer cells
PROCEDURE DETAILS: MTT cell viability assay, HeLa
Type: cell-based, human
MEASUREMENT PARAMETERS: Homo sapiens, read-out: IC50 in HeLa (unit inferred)

# COMPOUND, ASSAY TARGET, IC50, nM
data = [
    ("COc1ccc2nc(OC)c(/C=C3\\N=C(c4cc(OC)c(OC)c(OC)c4)OC3=O)cc2c1 [Compound 8e]", "HeLa cervical cancer cells", 10.1),
]

* * *

Tested on: HeLa cervical cancer cells
PROCEDURE DETAILS: MTT cell viability assay, HeLa
Format: cell-based, human
MEASUREMENT PARAMETERS: 72 h, read-out: IC50 value (μM) HeLa

# MOLECULE, IC50 (µM)
records = [
    ("COc1ccc(/C=C\\c2cc(OC)c(OC)c(OC)c2)cc1O [CA-4, Combretastatin A-4, reference compound]", 0.064),
]

* * *

# SMILES RECORD, melting point
records = [
    ("COc1ccc2cc(C=C3N=C(c4cc(OC)c(OC)c(OC)c4)OC3=O)c(OC)nc2c1", "221 to 223 °C"),
    ("COc1cc(C2=NC(=Cc3cc4cccc(C)c4nc3OC)C(=O)N2)cc(OC)c1OC", "233 to 235 °C"),
    ("COc1ccc2nc(OC)c(C=C3N=C(c4cc(OC)c(OC)c(OC)c4)NC3=O)cc2c1", "253 to 255 °C"),
    ("COc1cc(C2=NC(=Cc3cc4ccc(C)cc4nc3OC)C(=O)N2)cc(OC)c1OC", "236 to 238 °C"),
    ("COc1cc(C2=NC(=Cc3cc4ccc(OCc5ccccc5)cc4nc3OC)C(=O)O2)cc(OC)c1OC", "247 to 249 °C"),
    ("COc1cc(C2=NC(=Cc3cc4ccccc4nc3OC)C(=O)O2)cc(OC)c1OC", "215 to 217 °C"),
    ("COc1cc(C2=NC(=Cc3cc4ccccc4nc3OC)C(=O)N2)cc(OC)c1OC", "230 to 232 °C"),
    ("COc1ccc2cc(C=C3N=C(c4cc(OC)c(OC)c(OC)c4)NC3=O)c(OC)nc2c1", "241 to 243 °C"),
]
